Test system: Enterococcus faecium
Assay: Antibacterial activity against vancomycin-resistant Enterococcus faecium HM-952 infected in C57BL/6 mouse assessed as log reduction in bacterial colony forming unit in ileum at 20 mg/kg,po qd measured after 9 days of administration
Type: functional
Conditions: time 9 day
So I've got a bunch of compounds here, and I need their Activity values.
Give bare numbers, in log10CFU.

// worked examples, Activity included
Compound: CC(=O)Nc1nnc(S(N)(=O)=O)s1 [ACETAZOLAMIDE]
Activity, log10CFU: 2.59
//
Compound: NS(=O)(=O)c1nnc(NC(=O)CCC2CCCCC2)s1
Activity, log10CFU: 1.13
//
Compound: NS(=O)(=O)c1nnc(NC(=O)CN2CCOCC2)s1
Activity, log10CFU: 1.62

Next item in the queue.
Return reported Activity; argument: `CC(C)(C)CC(=O)Nc1nnc(S(N)(=O)=O)s1` 1.98
